Every entry's value here was drawn from patent US20150141411A1.

Counter-ions that a name gives are not always drawn.
quantity measured: melting point (°C)

## Input What value of measured melting point is listed for "Cc1cn(-c2cc(Cl)c3n(c2=O)CCN(Cc2cccc(-c4ccccc4)c2)C3=O)cn1" ?
## Output 136.5

## Input Moving on to the next compound: "COc1cccc(CN2CCn3c(ccc(-n4cnc(C)n4)c3=O)C2=O)c1"
## Output 151.2

## Input Next compound up: "Cc1cn(-c2ccc3n(c2=O)C[C@@H](C)N(Cc2ccc4scc(Br)c4c2)C3=O)cn1"
## Output 101.4

## Input Another compound: Cc1cn(-c2ccc3n(c2=O)C[C@@H](C)N(Cc2cc(OC(C)C)nc(C(F)(F)F)c2)C3=O)cn1 (as salt: HCl)
## Output 116.9

## Input Moving on to "Cc1cn(-c2ccc3n(c2=O)C[C@@H](C)N(Cc2ccccc2)C3=O)cn1"
## Output 136.5
